# tgt: UniProtKB Q994Q3
endpointLabel: Ki

structureSmiles	tgt	endpointLabel	obsValue
CCC[C@@]1(CCc2ccccc2)CC(O)=C([C@H](CC)c2cccc(NS(=O)(=O)c3ccc(C(F)(F)F)cn3)c2)C(=O)O1	UniProtKB Q994Q3	Ki	0.513 nM

Next item in the queue.
Memo: COC(=O)N[C@H](C(=O)N[C@@H](Cc1ccccc1)[C@@H](O)CN(Cc1ccc(-c2ccccn2)cc1)NC(=O)[C@@H](NC(=O)OC)C(C)(C)C)C(C)(C)C , reported Ki: 0.0776 nM

###

Measured IC50, listed per entry.
# tgt: E35D↑G↑S mutant HIV-1 subtype C protease (Human immunodeficiency virus type 1 group M subtype C, UniProt Q994Q3, D118E/E93D/I94G/INS93GS)
# testProtocol: biochemical
# cond: E35D↑G↑S IC50, mutant E35D↑G↑S, n = 3
Report the figure in nM without appending any unit label.

Example compounds with recorded IC50:
compound	IC50 [nM]
COC(=O)N[C@H](C(=O)N[C@@H](Cc1ccccc1)[C@@H](O)CN(Cc1ccc(-c2ccccn2)cc1)NC(=O)[C@@H](NC(=O)OC)C(C)(C)C)C(C)(C)C [ATV, Atazanavir]	685
CC(C)CN(C[C@@H](O)[C@H](Cc1ccccc1)NC(=O)O[C@H]1CO[C@H]2OCC[C@H]21)S(=O)(=O)c1ccc(N)cc1 [DRV, Darunavir]	154
Cc1cccc(C)c1OCC(=O)N[C@@H](Cc1ccccc1)[C@@H](O)C[C@H](Cc1ccccc1)NC(=O)[C@H](C(C)C)N1CCCNC1=O [LPV, Lopinavir]	51.7

Summary for this compound, CC(C)(C)NC(=O)[C@@H]1C[C@@H]2CCCC[C@@H]2CN1C[C@@H](O)[C@H](Cc1ccccc1)NC(=O)[C@H](CC(N)=O)NC(=O)c1ccc2ccccc2n1 [SQV, Saquinavir] : IC50 is 114

The reported value for CCC[C@@]1(CCc2ccccc2)CC(O)=C([C@H](CC)c2cccc(NS(=O)(=O)c3ccc(C(F)(F)F)cn3)c2)C(=O)O1 [TPV, Tipranavir] in terms of IC50 is 203
